- tgt: rMAO-B (Rattus norvegicus, UniProt P19643)
- Construct: using a suspension of crude rat brain mitochondria as enzyme source; from tissue; host or cells: rat brain (crude mitochondrial suspension)
- Sequence (P19643 whole entry): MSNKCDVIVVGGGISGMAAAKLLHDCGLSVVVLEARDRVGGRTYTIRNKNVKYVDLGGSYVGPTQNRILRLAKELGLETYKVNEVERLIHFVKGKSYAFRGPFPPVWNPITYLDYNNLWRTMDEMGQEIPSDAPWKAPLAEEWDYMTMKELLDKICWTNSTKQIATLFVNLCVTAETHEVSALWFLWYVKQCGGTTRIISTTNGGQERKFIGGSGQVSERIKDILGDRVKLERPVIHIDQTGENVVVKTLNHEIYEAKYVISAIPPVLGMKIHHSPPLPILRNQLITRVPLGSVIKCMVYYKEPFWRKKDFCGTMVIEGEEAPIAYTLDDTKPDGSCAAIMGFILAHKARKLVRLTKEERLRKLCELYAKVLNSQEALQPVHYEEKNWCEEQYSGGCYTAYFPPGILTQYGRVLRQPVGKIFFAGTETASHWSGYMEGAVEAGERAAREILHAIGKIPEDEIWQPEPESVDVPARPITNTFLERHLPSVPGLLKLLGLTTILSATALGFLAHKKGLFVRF
- protocol_details: Inhibition of rMAO-B in crude rat brain mitochondria (4-DMAPEA substrate, HPLC-ED)
- Format: biochemical
- assay_context: crude rat brain mitochondria; substrate 4-DMAPEA 2.5 µM
experimental_endpoint: IC50

[[record]]
query_smiles = "COc1ccc2cc(C(=O)/C=C/c3ccc4c(c3)OCO4)c(=O)oc2c1"
experimental_endpoint = "IC50"
reported_result = "3.71 µM"

[[record]]
query_smiles = "COc1ccc2cc(C(=O)C=Cc3ccccc3)c(=O)oc2c1"
experimental_endpoint = "IC50"
reported_result = "> 10 µM"

[[record]]
query_smiles = "COc1ccc2cc(C(=O)/C=C/c3ccc(N(C)C)cc3)c(=O)oc2c1"
experimental_endpoint = "IC50"
reported_result = "> 10 µM"

[[record]]
query_smiles = "COc1ccc(/C=C/C(=O)c2cc3ccc(OC)cc3oc2=O)cc1"
experimental_endpoint = "IC50"
reported_result = "6.96 µM"

[[record]]
query_smiles = "COc1cccc(/C=C/C(=O)c2cc3ccc(OC)cc3oc2=O)c1"
experimental_endpoint = "IC50"
reported_result = "9.63 µM"


The reported value for `COc1ccc2cc(C(=O)/C=C/c3ccc(SC)cc3)c(=O)oc2c1` in terms of IC50 is 5.88 µM

The reported value for `COc1ccc2cc(C(=O)/C=C/c3ccc(Br)cc3)c(=O)oc2c1` in terms of IC50 is > 10 µM

The reported value for `COc1ccc2cc(C(=O)/C=C/c3ccccc3OC)c(=O)oc2c1` in terms of IC50 is > 10 µM

The reported value for `COc1ccc2cc(C(=O)/C=C/c3cc(Br)c(OC)c(Br)c3)c(=O)oc2c1` in terms of IC50 is > 10 µM
